Assay: Cytotoxicity against human U937 cells assessed as cell viability at 20 uM relative to control
Format: cell-based, U-937
Conditions: read-out: Activity
Hi there, I'd appreciate the recorded viability at 20 µM for every entry that follows.
Answers are plain numbers, in %.

Below are worked cases with known answers.
COC(=O)C1=C(OC)C(=O)OC1C1=C(Cl)c2cc(C)c(C)cc2OC1 (stereo not given) | 90.7
CCOC(=O)C1=C(OCC)C(=O)OC1c1c(Cl)c2cc(-c3ccccc3)ccc2oc1=O (stereo not given) | 83.1
COC(=O)C1=C(OC)C(=O)OC1c1c(Cl)c2cc(C)c(C)cc2oc1=O (stereo not given) | 75.9
CCOC(=O)C1=C(OCC)C(=O)OC1C1=C(Cl)c2c(ccc(C)c2C)OC1 (stereo not given) | 85.2
COC(=O)C1=C(OC)C(=O)OC1c1c(Cl)c2cc(C)ccc2oc1=O (stereo not given) | 84.3

For each of the items listed, what is its viability at 20 µM?
1. COC(=O)C1=C(OC)C(=O)OC1C1=C(Cl)c2ccc3ccccc3c2OC1 (stereo not given)
2. CCOC(=O)C1=C(OCC)C(=O)OC1c1c(Cl)c2ccccc2oc1=O (stereo not given)
3. CCOC(=O)C1=C(OCC)C(=O)OC1c1c(Cl)c2cc(Br)ccc2oc1=O (stereo not given)
4. CCOC(=O)C1=C(OCC)C(=O)OC1C1=C(Cl)c2cc(C)ccc2OC1 (stereo not given)
5. COC(=O)C1=C(OC)C(=O)OC1c1c(Cl)c2cc(Br)ccc2oc1=O (stereo not given)

Return:
[80.2, 75.9, 83, 81.6, 85.3]
